# assay: Pharmacokinetics in rats
# Format: in vivo, Sprague-Dawley rats
# condition-description: Sprague-Dawley, rat, plasma, iv, 3mg/kg, n=3, AUC0-24h

| compound | AUC |
| --- | --- |
| COc1ccc(C23CCC(CN(C(=O)c4ccncc4C)c4cc(Cl)cc(Cl)c4)(CC2)CC3)cc1C#N [Compound 20q] | 1460 ng·h/mL |

* * *

# target-of-assay: PPAR alpha (Homo sapiens, UniProt Q07869)
# Construct: Eurofine Cerep / Eurofine Panlabs Discovery Services
# Sequence (Q07869 whole entry): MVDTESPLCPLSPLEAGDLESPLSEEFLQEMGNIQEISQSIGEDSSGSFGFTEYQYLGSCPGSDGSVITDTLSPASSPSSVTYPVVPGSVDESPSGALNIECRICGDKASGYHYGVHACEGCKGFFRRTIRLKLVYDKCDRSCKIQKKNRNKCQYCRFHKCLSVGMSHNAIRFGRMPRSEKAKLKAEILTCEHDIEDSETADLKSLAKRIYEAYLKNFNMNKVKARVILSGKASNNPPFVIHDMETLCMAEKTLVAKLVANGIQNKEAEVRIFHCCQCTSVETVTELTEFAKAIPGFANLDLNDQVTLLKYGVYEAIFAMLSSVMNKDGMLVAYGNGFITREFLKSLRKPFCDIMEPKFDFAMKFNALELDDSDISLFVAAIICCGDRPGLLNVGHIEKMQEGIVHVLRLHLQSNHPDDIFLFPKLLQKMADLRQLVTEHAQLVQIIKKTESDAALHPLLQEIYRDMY
# assay: Selectivity, NR functional assay
# condition-description: NR functional assay
# Excerpt: Compound 20p was screened against a broad panel of NRs and GPCRs to determine its agonist activity in vitro. […] The selectivity tests of compound 20p were investigated by Eurofine Cerep (86600, Celle-Levescault, France) and Eurofine Panlabs Discovery Services (No. 25, Wugong, 6th Road, Wugu District, New Taipai City, Taiwan). Compound binding was caluculated as a % inhibition of the binding of radioactively labeled ligand specific for each target. […]
pEC50: −log10 of the molar value.

| molecule | pEC50 |
| --- | --- |
| COc1cc(Cl)cc(N(CC23CCC(c4ccc(OC)c(C#N)c4)(CC2)CC3)C(=O)c2ccncc2C)c1 [Compound 20p] | < 4.52 |
